- assay.overview: In vivo toxicity study, rats
- setup.conditions: rat, read-out: Maximum tolerated dose
experimental.endpoint: MTD

- [2H]C1([2H])N(CCCNC(=O)[C@@H](N)CCCNC(=N)N)C([2H])([2H])C([2H])([2H])N(CCCNC(=O)[C@@H](N)CCCNC(=N)N)C1([2H])[2H]: 40 mg/kg
